Target: CDK9/cyclin T1 (Homo sapiens, UniProt P50750)
Sequence (O60563 whole entry): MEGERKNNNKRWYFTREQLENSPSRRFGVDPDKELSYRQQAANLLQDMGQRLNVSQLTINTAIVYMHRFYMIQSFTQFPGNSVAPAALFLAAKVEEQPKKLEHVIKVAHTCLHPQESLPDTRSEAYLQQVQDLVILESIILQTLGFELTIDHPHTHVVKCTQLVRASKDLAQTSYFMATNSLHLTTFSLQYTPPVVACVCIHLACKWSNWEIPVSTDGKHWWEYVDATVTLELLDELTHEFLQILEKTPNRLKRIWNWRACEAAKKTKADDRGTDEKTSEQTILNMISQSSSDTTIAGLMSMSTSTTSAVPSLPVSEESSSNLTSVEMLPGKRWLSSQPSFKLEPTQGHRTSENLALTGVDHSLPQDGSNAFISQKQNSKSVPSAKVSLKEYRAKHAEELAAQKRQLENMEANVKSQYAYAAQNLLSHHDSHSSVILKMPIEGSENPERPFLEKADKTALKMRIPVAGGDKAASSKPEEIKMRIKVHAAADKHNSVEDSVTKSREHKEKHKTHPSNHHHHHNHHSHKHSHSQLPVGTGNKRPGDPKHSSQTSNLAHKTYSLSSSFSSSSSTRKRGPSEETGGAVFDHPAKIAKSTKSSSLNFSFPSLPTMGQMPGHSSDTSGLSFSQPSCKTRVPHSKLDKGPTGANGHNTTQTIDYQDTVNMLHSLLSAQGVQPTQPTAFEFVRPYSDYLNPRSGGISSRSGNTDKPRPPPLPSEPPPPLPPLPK
Sequence (P50750 whole entry): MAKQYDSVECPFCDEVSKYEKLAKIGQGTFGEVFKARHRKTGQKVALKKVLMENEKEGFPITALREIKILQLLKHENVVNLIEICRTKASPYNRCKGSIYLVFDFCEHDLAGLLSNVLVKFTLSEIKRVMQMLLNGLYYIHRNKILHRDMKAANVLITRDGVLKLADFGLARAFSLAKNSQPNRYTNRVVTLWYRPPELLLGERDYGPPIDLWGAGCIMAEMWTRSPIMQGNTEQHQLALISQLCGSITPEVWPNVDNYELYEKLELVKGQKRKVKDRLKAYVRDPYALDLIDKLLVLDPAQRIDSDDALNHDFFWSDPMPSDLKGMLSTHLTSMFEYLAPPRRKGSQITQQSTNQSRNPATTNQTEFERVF
Assay: Inhibition of human CDK9/CyclinT1 by enzymatic radiometric assay
observation-type: pIC50
Answer as the number alone; pIC50 is minus log10 of concentration in mol/L.

Recorded pIC50 for CN(C)C(=O)c1cc2cnc(Nc3ccc(NC(=O)C4(C(=O)Nc5ccc(F)cc5)CC4)cc3)nc2n1C1CCCC1 , please?
7.92

---

Target: CDK4/Cyclin D3 (Homo sapiens) (UniProt P11802+P30281)
Assay: Inhibition of human CDK4/CyclinD3 at 1 uM by enzymatic radiometric assay
Format: protein-complex assay
Reported inhibition by item:
Entry rule: numbers only, all in %.

> print(dat)
                           smiles.structure  units.of.measure  numeric.readout
1  CN(C)C(=O)c1cc2cnc(Nc3ccc(NC(=O)C4(C(=O)Nc5ccc(C#N)cc5)CC4)cc3)nc2n1C1CCCC1                 %               84

Given the compound CN(C)C(=O)c1cc2cnc(Nc3ccc(NC(=O)C4(C(=O)Nc5ccccc5F)CC4)cc3)nc2n1C1CCCC1 , what is its reported inhibition?
75

Sample CN(C)C(=O)c1cc2cnc(Nc3ccc(NC(=O)C4(C(=O)Nc5cccc(Br)c5)CC4)cc3)nc2n1C1CCCC1 — what was its inhibition?
72

Item under review: COC(=O)c1cccc(NC(=O)C2(C(=O)Nc3ccc(Nc4ncc5cc(C(=O)N(C)C)n(C6CCCC6)c5n4)cc3)CC2)c1 . Reported inhibition?
76

Any idea what its inhibition is? The compound is CN(C)C(=O)c1cc2cnc(Nc3ccc(NC(=O)C4(C(=O)Nc5cccc(O)c5)CC4)cc3)nc2n1C1CCCC1
94

Hey, just so you know, these numbers are from ChEMBL document CHEMBL4052710.
